- Test description: Oral bioavailability in dog
- Type: ADME, organism-based, Canis lupus familiaris
- Condition summary: in vivo
Endpoint: bioavailability (%)
State just the number; it will be interpreted in %.

Lookup: Entry COc1cccc([C@@H](c2ccc3c(c2)CN(CC(=O)O)CC3)N2C[C@@H](C)N(Cc3ccccc3)C[C@@H]2C)c1 has what bioavailability?
Found: 20

----------
- Tested system: UniProtKB P97266
- Sequence (P97266 whole entry): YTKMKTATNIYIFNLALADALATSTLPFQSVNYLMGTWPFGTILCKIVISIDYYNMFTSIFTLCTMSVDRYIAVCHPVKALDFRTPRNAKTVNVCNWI
- Test description: Agonist activity at mu opioid receptor in myenteric plexus muscle from guinea pig
Endpoint: IC50 (nM)
State just the number; it will be interpreted in nM.

// below: answered molecules
[
  {
    "Cpd smiles": "C[C@@H]1CN([C@@H](c2cccc(O)c2)c2ccc3c(c2)CN(C(=O)c2ccccc2C(=O)O)C3)[C@@H](C)CN1Cc1ccccc1",
    "IC50 / nM": 50.1
  },
  {
    "Cpd smiles": "C[C@@H]1CN([C@@H](c2cccc(O)c2)c2ccc3c(c2)CN(CCC(=O)O)C3)[C@@H](C)CN1Cc1ccccc1",
    "IC50 / nM": 631
  },
  {
    "Cpd smiles": "COc1cccc([C@@H](c2ccc3c(c2)CN(CC(=O)O)CC3)N2C[C@@H](C)N(Cc3ccccc3)C[C@@H]2C)c1",
    "IC50 / nM": 5010
  },
  {
    "Cpd smiles": "C[C@@H]1CN([C@@H](c2cccc(O)c2)c2ccc3c(c2)CN(C(=O)CC(=O)O)CC3)[C@@H](C)CN1Cc1ccccc1",
    "IC50 / nM": 200
  },
  {
    "Cpd smiles": "C[C@@H]1CN([C@@H](c2cccc(O)c2)c2ccc3c(c2)CN(CC(=O)O)CC3)[C@@H](C)CN1Cc1ccccc1",
    "IC50 / nM": 316
  },
  {
    "Cpd smiles": "C[C@@H]1CN([C@@H](c2cccc(O)c2)c2ccc3c(c2)CN(CC(=O)O)C3)[C@@H](C)CN1Cc1ccccc1",
    "IC50 / nM": 126
  },
  {
    "Cpd smiles": "C[C@@H]1CN([C@@H](c2cccc(O)c2)c2ccc3c(c2)CN(C(=O)C(=O)O)CC3)[C@@H](C)CN1Cc1ccccc1",
    "IC50 / nM": 200
  },
  {
    "Cpd smiles": "C[C@@H]1CN([C@@H](c2cccc(O)c2)c2ccc3c(c2)CN(C(=O)c2cccc(C(=O)O)c2)C3)[C@@H](C)CN1Cc1ccccc1",
    "IC50 / nM": 100
  }
]

Here's the next entry for you.
Lookup: Entry C[C@@H]1CN([C@@H](c2cccc(O)c2)c2ccc3c(c2)CN(CCC(=O)O)CC3)[C@@H](C)CN1Cc1ccccc1 has what IC50?
Found: 1000
